Molecular target: Bcat-Halo (UniProt P35222)
Sequence (P35222 whole entry): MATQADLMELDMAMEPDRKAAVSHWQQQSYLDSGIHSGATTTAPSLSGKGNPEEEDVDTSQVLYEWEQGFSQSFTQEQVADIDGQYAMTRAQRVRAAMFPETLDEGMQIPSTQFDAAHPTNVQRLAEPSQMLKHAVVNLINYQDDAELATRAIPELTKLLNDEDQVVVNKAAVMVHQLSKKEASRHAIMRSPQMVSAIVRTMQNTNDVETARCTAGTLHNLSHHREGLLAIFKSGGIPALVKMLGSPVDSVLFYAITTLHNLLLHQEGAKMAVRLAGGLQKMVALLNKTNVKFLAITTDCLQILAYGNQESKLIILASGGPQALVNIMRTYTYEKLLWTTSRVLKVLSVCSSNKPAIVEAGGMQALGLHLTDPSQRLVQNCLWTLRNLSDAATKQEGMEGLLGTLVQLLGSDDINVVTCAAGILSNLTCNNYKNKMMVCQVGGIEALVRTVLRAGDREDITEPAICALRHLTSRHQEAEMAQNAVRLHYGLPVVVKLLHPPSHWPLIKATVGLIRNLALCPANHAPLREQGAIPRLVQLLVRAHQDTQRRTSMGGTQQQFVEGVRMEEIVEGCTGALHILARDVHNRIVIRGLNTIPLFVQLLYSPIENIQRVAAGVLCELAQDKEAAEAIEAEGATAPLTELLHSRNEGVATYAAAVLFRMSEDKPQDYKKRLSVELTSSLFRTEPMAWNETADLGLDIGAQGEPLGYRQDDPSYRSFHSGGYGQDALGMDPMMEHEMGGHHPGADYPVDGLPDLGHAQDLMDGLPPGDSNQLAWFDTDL
Assay: NanoBRET Abs IC50, HEK293 cells, B-cat-Halo/TCF4-Luc; competitor TCF4-Luc
Starred links: 1 amine or outer side, 2 acyl side, 3 side chain; linkers in the order of their positions; H or OH if unused. Positions of bridges follow the written chain, without caps; N, C: chain ends. Non-standard residues stand in square brackets, D forms with d. Primed or numbered codes have the meaning given here. PyrS2 = (S)-3-amino-1-((pent-4-en-1-yloxy)carbonyl)pyrrolidine-3-carboxylic acid, C=CCCCOC(=O)N1CC[C@@](N[*:1])(C(=O)[*:2])C1; B5(12) = 2-amino-2-(pent-4-en-1-yl)hept-6-enoic acid (two olefin side chains), C=CCCCC(CCCC=C)(N[*:1])C(=O)[*:2]; Bta = N[C@@H](Cc1csc2ccccc12)C(=O)O; αAllylPro = C=CC[C@@]1(C(=O)O)CCCN1; tBuAla = CC(C)(C)C[C@H](N)C(=O)O; 3Thi = N[C@@H](Cc1ccsc1)C(=O)O
parameter: IC50

1) Ac-[αAllylPro]D[tBuAla][B5(12)]DQAAFN[PyrS2][3Thi][Bta]-NH2 (staple 1-4, 4-11) [I-858] | > 20 µM
2) Ac-[αAllylPro]D[tBuAla][B5(12)]DTAAFN[PyrS2][3Thi][Bta]-NH2 (staple 1-4, 4-11; also: earlier eluting HPLC peak (staple isomer)) [I-859] | > 20 µM
3) Ac-[αAllylPro]D[tBuAla][B5(12)]DHAAFN[PyrS2][3Thi][Bta]-NH2 (staple 1-4, 4-11) [I-863] | > 20 µM
